Assay: yeast growth modulation, basal conditions, primary screen, YJM789 clinical isolate, OD600, 24 h (AID 1089);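 also: growth of clinical yeast isolate S. cerevisiae YJM 789 seeded 1000 cells per well; test concentration not given here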
Settings: S. cerevisiae YJM789 growth, higher = more signal, called active from +8 up or from −8 down
Measured Quantity: z-score
I'd appreciate a reply containing only the number, no unit.

// z-score value for Cc1cc2c(nc1C)CCCN2CC(C)ON=C[C@@H](C)[C@H](OCc1ccccc1)C(C)C (some centres undefined) : 0.481

// z-score value for `CC(C)CON=C1C[C@@H](O)[C@@H](O)[C@@H]2[C@@H]3C(=O)N(c4cccc(Oc5ccccc5)c4)C(=O)[C@@H]3CC[C@H]12` : 0.097

// z-score value for `CCOC(=O)NN=C1C[C@@H](O)[C@@H](O)[C@@H]2[C@@H]3C(=O)N(Cc4ccccc4)C(=O)[C@@H]3CC[C@@H]12` : 0.872

// z-score value for `C#CCCCON=C1C[C@@H](O)[C@@H](O)[C@@H]2[C@@H]3C(=O)N(C4CCCCC4)C(=O)[C@@H]3CC[C@H]12` : -0.177

---

I'd appreciate it if you could supply z-score values for the items below.
Test: P. aeruginosa biofilm formation inhibitors, primary screen, strain PAO1, LB-PBS medium, absorbance 600 nm (AID 1176); also: test concentration not given here
Settings: P. aeruginosa PAO1 growth/biofilm, A600, 12 h; higher = more signal
I'd appreciate a reply containing only the number, no unit.

// z-score value for `CC(C)=CCCC(C)=CCON=C1C[C@@H](O)[C@@H](O)[C@@H]2[C@@H]3C(=O)N([C@@H](C)c4ccccc4)C(=O)[C@@H]3CC[C@H]12` : 0.365

// z-score value for COC(=O)[C@H](C)NC(=O)CCC1CC(OC(=O)NCCc2ccc(F)cc2)CC2(CCCC(COC(=O)NCCCN3CCCC3=O)O2)O1 (stereo partly specified) : -0.977

// z-score value for `CC(C)C(=O)N[C@@H]1CCCN1C(=O)C=Cc1ccccc1` : 0.286

// z-score value for `C[C@@H](c1ccccc1)N1C(=O)[C@H]2[C@H]3[C@H](O)[C@H](O)CC(=O)[C@@H]3CC[C@H]2C1=O` : 0.377

// z-score value for `CO[C@H]1COC(=O)CC=C[C@@H](C)COC(=O)[C@H](CCSC)NC(=O)CC=C[C@@H]1C` : 0.0821

// z-score value for C=CCN(C(=O)C(c1cccs1)N(CCOCCO)C(=O)/C=C\C(=O)O)C(C)(C)C (stereo unspecified) : -0.497

// z-score value for `CCN1C(=O)[C@H]2[C@H]3[C@H](O)[C@H](O)CC(=NNC(=O)OCc4ccc(OC)cc4)[C@H]3CC[C@H]2C1=O` : -0.273

// z-score value for `CC(=O)OC[C@H]1O[C@H](C#CC(C)(C)C)C=C[C@@H]1OC(C)=O` : -0.151

// z-score value for `CO[C@@H]1COC(=O)CC=C[C@H](C)COC(=O)[C@H](C)NC(=O)CC=C[C@H]1C` : -0.531

// z-score value for `CC(C)=NO[C@@H](C)c1cc(-c2c(C)cc(C)cc2C)no1` : 0.499

// z-score value for `COC(=O)C1=C(C)N(Cc2ccccc2)C2=C(C(C)=O)[C@H](c3ccccc3)[C@@](O)(C(=O)OC)C(=O)N2[C@@H]1c1ccccc1` : 1.08

// z-score value for `CC(C)CON=C1C[C@@H](O)[C@@H](O)[C@@H]2[C@@H]3C(=O)N(c4cccc(Oc5ccccc5)c4)C(=O)[C@@H]3CC[C@H]12` : 0.34

// z-score value for `C[C@@H](ON=C1[C@H]2CCn3c(=O)n(-c4ccccc4)c(=O)n3[C@H]2[C@H](O)[C@@H]2O[C@H]12)c1cn([C@H](CO)Cc2ccccc2)nn1` : -0.525

// z-score value for `Cc1ccc(S(=O)(=O)N[C@H]2COC(=O)[C@@H](C)COC(=O)[C@H](C)NC(=O)CC=C[C@H]2C)cc1` : -0.814

// z-score value for `C[C@@H]1CC[C@@H](C(=O)O)N[C@H]1c1ccc(-c2ccco2)cc1` : -0.151

// z-score value for CCOC(=O)[C@H](Cc1ccccc1)NC(=O)CCC1CC(OC(=O)NCc2cccc3ccccc23)CC2(CCCC(COC(=O)NCCCN3CCCC3=O)O2)O1 (stereo partly specified) : 0.639

---

Experiment: small-molecule binders of probe aInhba, primary screen, biochemical, small-molecule microarray, 635/667 nm fluorescence (AID 1148);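 also: score merges 667nm spot fluorescence with signal-to-noise for antibody binding to printed compounds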
Settings: higher = more signal
I'd appreciate it if you could supply composite z-score values for the items below.
I'd appreciate a reply containing only the number, no unit.

// composite z-score value for `CC(C)=NOC[C@@H](O)COCc1ccco1` : -0.003

// composite z-score value for `Cc1ccc(S(=O)(=O)N[C@H]2COC(=O)[C@@H](C)COC(=O)[C@H](C)NC(=O)CC=C[C@H]2C)cc1` : -0.128

// composite z-score value for `CC(C)=NOCc1ccc(-c2cn([C@@H]3COC[C@H]3O)nn2)cc1` : -0.128

// composite z-score value for Cc1cc2c(nc1C)CCCN2CC(C)ON=C[C@@H](C)[C@H](OCc1ccccc1)C(C)C (stereo not given in full) : -0.016

// composite z-score value for `CO[C@@H]1COC(=O)CC=C[C@H](C)COC(=O)[C@H](C)NC(=O)CC=C[C@H]1C` : -0.208

---

Test: E. coli growth modulation, two-sided OD650, primary screen, E. coli filamentation project, strain DRC41, 24 h (AID 1093);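 also: MC1000 strain lacking acrAB efflux and sulA so SOS filamentation is blocked; test concentration not given here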
Settings: OD650, 24 h, higher = more signal, called active from +8 up or from −8 down
Hi, to clarify the labels: true (1) covers z-score from 0.3 upward, false (0) covers anything below 0.3.

Prompt: Does z-score meet or surpass 0.3 for `CCOC(=O)NN=C1C[C@@H](O)[C@@H](O)[C@@H]2[C@@H]3C(=O)N(Cc4ccc5c(c4)OCO5)C(=O)[C@@H]3CC[C@@H]12` ?
Response: false (0)

Prompt: Does z-score meet or surpass 0.3 for CCOC(=O)[C@H](Cc1ccccc1)NC(=O)CCC1CC(OC(=O)NCc2cccc3ccccc23)CC2(CCCC(COC(=O)NCCCN3CCCC3=O)O2)O1 (stereo partly drawn) ?
Response: false (0)

Prompt: Does z-score meet or surpass 0.3 for `C#CCCCON=C1C[C@@H](O)[C@@H](O)[C@@H]2[C@@H]3C(=O)N(C4CCCCC4)C(=O)[C@@H]3CC[C@H]12` ?
Response: true (1)

Prompt: Does z-score meet or surpass 0.3 for `CCN1C(=O)[C@H]2[C@H]3[C@H](O)[C@H](O)CC(=NNC(=O)OCc4ccc(OC)cc4)[C@H]3CC[C@H]2C1=O` ?
Response: false (0)

Prompt: Does z-score meet or surpass 0.3 for `CC(C)=NOCc1ccc(-c2cn([C@@H]3COC[C@H]3O)nn2)cc1` ?
Response: true (1)

Prompt: Does z-score meet or surpass 0.3 for `C=C(C)C(=O)OC[C@@H]1CN2[C@@H](CC[C@@H](C)[C@@H]2c2ccc(Br)cc2)C(=O)O1` ?
Response: true (1)

Prompt: Does z-score meet or surpass 0.3 for `CO[C@@H]1COC(=O)CC=C[C@H](C)COC(=O)[C@H](C)NC(=O)CC=C[C@H]1C` ?
Response: false (0)

Prompt: Does z-score meet or surpass 0.3 for `CC(=O)OC[C@H]1O[C@H](C#CC(C)(C)C)C=C[C@@H]1OC(C)=O` ?
Response: true (1)

Prompt: Does z-score meet or surpass 0.3 for `C[C@@H](ON=C1[C@H]2CCn3c(=O)n(-c4ccccc4)c(=O)n3[C@H]2[C@H](O)[C@@H]2O[C@H]12)c1cn([C@H](CO)Cc2ccccc2)nn1` ?
Response: true (1)

Prompt: Does z-score meet or surpass 0.3 for `CCCNC(=O)OC[C@H]1O[C@H](CCON=C(C)CCC(=O)OC[C@H]2O[C@H](C#Cc3ccccc3)C=C[C@@H]2Oc2ccc(C)cc2)C=C[C@@H]1Oc1ccc(OC)cc1` ?
Response: false (0)

Prompt: Does z-score meet or surpass 0.3 for `CC(C)=NOC[C@@H](O)COCc1ccco1` ?
Response: true (1)

Prompt: Does z-score meet or surpass 0.3 for `Cc1ccc(S(=O)(=O)N[C@H]2COC(=O)[C@@H](C)COC(=O)[C@H](C)NC(=O)CC=C[C@H]2C)cc1` ?
Response: false (0)

Prompt: Does z-score meet or surpass 0.3 for `CO[C@H]1COC(=O)[C@H](C)NC(=O)CC=C[C@@H](C)[C@H](OC)COC(=O)CC=C[C@@H]1C` ?
Response: true (1)

---

Target: Torsin-1A (Homo sapiens)
Experiment: torsin A binders from cell lysate, primary screen, small-molecule microarray, wild-type, 635/667 nm (AID 1149)
Conditions: COS7 hTOR1A-WT lysate, 635 nm fluorescence, higher = more signal
Hi, to clarify the labels: satisfied covers composite z-score from 0.04 upward, not satisfied covers anything below 0.04.

Prompt: Does composite z-score meet or surpass 0.04 for `CO[C@@H]1COC(=O)CC=C[C@H](C)COC(=O)[C@H](C)NC(=O)CC=C[C@H]1C` ?
Response: satisfied

Prompt: Does composite z-score meet or surpass 0.04 for CCOC(=O)[C@H](CC(C)C)NC(=O)CCC1CC(OC(=O)NCc2cccc3ccccc23)CC2(CCCC(COC(=O)NCc3ccccc3)O2)O1 (stereo partly specified) ?
Response: not satisfied

Prompt: Does composite z-score meet or surpass 0.04 for `CCN1C(=O)[C@H]2[C@H]3[C@H](O)[C@H](O)CC(=NNC(=O)OCc4ccc(OC)cc4)[C@H]3CC[C@H]2C1=O` ?
Response: satisfied

Prompt: Does composite z-score meet or surpass 0.04 for `CC(C)CCN1CCc2nc(-c3ccccc3)c3c(c2C1)CO[C@@H](C)C3` ?
Response: satisfied

Prompt: Does composite z-score meet or surpass 0.04 for `CCN1C(=O)[C@H]2[C@H]3[C@H](O)[C@H](O)CC(=NOC)[C@@H]3CC[C@H]2C1=O` ?
Response: not satisfied

Prompt: Does composite z-score meet or surpass 0.04 for `CCOC(=O)NN=C1C[C@@H](O)[C@@H](O)[C@@H]2[C@@H]3C(=O)N(Cc4ccccc4)C(=O)[C@@H]3CC[C@@H]12` ?
Response: satisfied

Prompt: Does composite z-score meet or surpass 0.04 for `CO[C@H]1COC(=O)CC=C[C@@H](C)COC(=O)[C@@H](OCc2ccccc2)C=C[C@@H]1C` ?
Response: satisfied

Prompt: Does composite z-score meet or surpass 0.04 for `CC(C)=NO[C@@H](C)c1cc(-c2c(C)cc(C)cc2C)no1` ?
Response: not satisfied

Prompt: Does composite z-score meet or surpass 0.04 for `C[C@@H]1CC[C@@H](C(=O)O)N[C@H]1c1ccc(-c2ccco2)cc1` ?
Response: satisfied

Prompt: Does composite z-score meet or surpass 0.04 for `CC(C)=NOC[C@@H](O)COCc1ccco1` ?
Response: not satisfied

Prompt: Does composite z-score meet or surpass 0.04 for `CC(C)CON=C1C[C@@H](O)[C@@H](O)[C@@H]2[C@@H]3C(=O)N(c4cccc(Oc5ccccc5)c4)C(=O)[C@@H]3CC[C@H]12` ?
Response: not satisfied

Reference source for all entries: PubChem BioAssay
